Below, each entry is listed with its recorded pEC50.
test system: HT-29; experiment: Viability assay with HT-29; format: cell-based; details: HT-29, viability assay per Example 57
pEC50: −log10 of the molar value. Structures can show the parent of a compound that is named as a salt.

Worked examples, 3 compounds total:
NCc1ccc(-n2cc(-c3ccc(OC(F)(F)F)cc3)c3cc(CN4CCN(Cc5ccccc5Cl)CC4)ccc32)cn1 | ≥ 5.30
Cc1cccnc1CN1CCN(Cc2ccc3c(c2)c(-c2ccc(OC(F)(F)F)cc2)cn3CCCN)CC1 [C145; HCl] | ≥ 5.30
NCCCn1nc2ccc(CN3CCN(Cc4ccccc4Cl)CC3)cc2c1-c1ccc(OC(F)(F)F)cc1 [C182; HCl] | ≥ 5.30

Ask: // query pEC50 value for entry CCC1CCN(Cc2ccc3c(c2)c(-c2ccc(C)cc2CN)cn3CCCN)CC1 [C256; HCl]
Result: 5.00 to 5.30

Ask: Would you mind doing NCCCn1cc(-c2ccc(OC(F)(F)F)cc2)c2c(CN3CCN(CCc4ccccc4Cl)CC3)cccc21 [C147; HCl] as well?
Result: ≥ 5.30

Ask: Param item: Cn1cc(-c2cn(CCCN)c3ccc(CN4CCN(Cc5ccccc5Cl)CC4)cc23)cn1 [C191; HCl]
Result: 5.00 to 5.30

Ask: Record: NCCCn1cc(-c2ccc(OC(F)(F)F)cc2CN)c2cc(CN3CCC(CC(F)(F)F)CC3)ccc21 [C252; HCl]
Result: ≥ 5.30

Ask: Also CN(CCN(C)C(=O)c1ccc2c(c1)c(-c1ccc(OC(F)(F)F)cc1)cn2CCCN)Cc1ccccc1Cl [C193; HCl] ?
Result: ≥ 5.30

Ask: Could you do the same for COc1ccc(-c2cn(CCCN)c3ccc(CN4CCN(Cc5ccccc5Cl)CC4)cc23)c(CN)c1 [C222; HCl] , please?
Result: ≥ 5.30

Ask: COc1cccc(C(C)(C)N2CCN(Cc3ccc4c(c3)c(-c3ccc(OC(F)(F)F)cc3CN)cn4CCCN)CC2)c1 [C283; HCl] , same question.
Result: ≥ 5.30

Ask: Similarly, NCCCn1cc(-c2ccc(OC(F)(F)F)cc2)c2cc(CN3CCS(=O)(=O)CC3)ccc21 ?
Result: 5.00 to 5.30

Ask: Repeat with NCCCn1cc(-c2ccc(OC(F)(F)F)cc2CN)c2cc(CN3CCC(Nc4ccccc4Cl)CC3)ccc21 [C241; HCl]
Result: ≥ 5.30

Ask: One more compound: NCCCn1cc(-c2ccc(OC(F)(F)F)cc2CN)c2cc(CN3CCC4(CCN(Cc5ccccc5Cl)CC4)C3)ccc21 [C250; HCl]
Result: ≥ 5.30

Ask: Another compound to check: NCCCn1cc(-c2ccc(OC(F)(F)F)cc2CN)c2cc(CN3CCC4(CCCN(Cc5ccccc5Cl)C4)CC3)ccc21 [C253; HCl]
Result: ≥ 5.30

Ask: Now the same for Cn1nccc1CN1CCN(Cc2ccc3c(c2)c(-c2ccc(OC(F)(F)F)cc2)cn3CCCN)CC1 [C128; HCl]
Result: ≥ 5.30
